Cited source: PubChem BioAssay (NCI)

Test system: LOX IMVI melanoma
Assay: NCI-60 one-dose screen, 48 h (100 = growth as untreated, 0 = no growth, -100 = all killed)
Conditions: 10 µM unless noted
This is part of a sample that, as a whole, favours compounds with a hit. Of some 83,000 tested, about 20% had one in any assay. Activity calls are given as the source filed them. Rule for the calls: active = growth percent below 10; inactive = the rest.
Kindly state growth for each of the entries shown.

The recorded growth for entry CN(C)c1cc(NN=C(c2ccc(O)cc2)c2ccc(O)cc2)c([N+](=O)[O-])cc1[N+](=O)[O-] equals 43.7% (inactive)

The recorded growth for entry Cn1cc(-c2nnc(-c3cn(C)c4ncccc34)s2)c2ccccc21 equals 86% (inactive)

The recorded growth for entry Brc1ccc2c(c1)CN(C1CCCCC1)CO2 equals 95.1% (inactive)

The recorded growth for entry O=C(NCCCNC(=O)OCc1ccc2c(Br)cc(Br)c(O)c2n1)OCc1ccc2c(Br)cc(Br)c(O)c2n1 equals -92% (active)

The recorded growth for entry C=C(C)[C@@H]1CC[C@]2(C)[C@H](CC[C@@H]3[C@@H]([C@@](C)(O)CCC=C(C)C)CC[C@]32C)[C@@]1(C)CCC(=O)N1CCN(C)CC1 equals -100% [100 µM] (active)

The recorded growth for entry COc1ccc(C2=C(c3cn(C)c4ccccc34)C(=O)OC2)cc1OC equals 49.6% (inactive)

The recorded growth for entry O=C(CCNCc1ccccc1)c1ccccc1 equals 105% (inactive)

The recorded growth for entry Oc1cc(Nc2ccnc3cc(Cl)ccc23)c2ncccc2c1 equals 72.7% (inactive)

The recorded growth for entry CCCCCCCCN(CCCCCCCC)CC(O)c1ccc(Cl)c(C)c1Cl (stereo not drawn) equals 53.5% (inactive)

The recorded growth for entry O=C(N/N=C/c1c(Cl)cccc1Cl)c1cccc(Nc2ccnc(C(F)(F)F)c2)c1 equals 83.7% (inactive)

The recorded growth for entry CCN=C1C=CC(=C(c2ccc(N(CC)CC)cc2)c2ccc(N(CC)CC)cc2)c2ccccc21 equals -64.6% (active)

The recorded growth for entry COc1ccc(/C=C2\N=C(Nc3ccccc3)N(NC(=O)c3ccccn3)C2=O)cc1 equals 95.5% (inactive)

The recorded growth for entry NC(=O)CC1C=CCC1 (stereo not drawn) equals 103% (inactive)

The recorded growth for entry CSc1cccc([N+](=O)[O-])c1 equals 92.5% (inactive)

The recorded growth for entry C=C(C)[C@@H]1CC[C@]2(C(N)=O)CC[C@]3(C)[C@H](CC[C@@H]4[C@@]5(C)CC[C@H](O)C(C)(C)[C@@H]5CC[C@]43C)[C@@H]12 equals -72.8% [100 µM] (active)

The recorded growth for entry COc1ncc(-c2ccc3nccc(C#CCCCCC(=O)O)c3c2)cc1NS(=O)(=O)c1ccc(F)cc1F equals 28.2% (inactive)

The recorded growth for entry COc1cc(OC)cc(C(=O)Nc2cc(-c3cccnc3)nc(NCCCN3CCOCC3)n2)c1 equals 88.1% (inactive)

The recorded growth for entry COc1ccc(-c2ccc(NNC(=O)c3ccc(F)cc3)nn2)cc1OC equals 44.2% (inactive)

The recorded growth for entry COc1ccc(-c2cc(-c3ccccc3)nc(NCCNc3ccnc4cc(Cl)ccc34)n2)cc1 equals -79% (active)

The recorded growth for entry CC1Cc2c(Cl)ncnc2N(C)c2ccc(O)cc21 (stereo not drawn) equals 11.9% (inactive)

The recorded growth for entry O=[N+]([O-])c1cc([N+](=O)[O-])c(NN=C(c2ccc(O)cc2)c2ccc(O)cc2)cc1Cl equals -94% (active)

The recorded growth for entry O=C(Nc1cccc2cccnc12)c1cc(C(=O)c2ccc(Cl)cc2)n2ccc(-c3ccncc3)cc12 equals 101% (inactive)

The recorded growth for entry Cc1cc(C)c(O)c(CNCCCCCCNCc2cc(C)cc(C)c2O)c1 equals -85% (active)
